# Tested on: SF-539
# protocol.description: NCI tumour cell line growth inhibition, 48 h
Activity calls are given as the source filed them. Rule as the data show it: active = GI50 up to about 1.1 µM and inactive = higher.
Classes used: 1 for active, -1 for inactive

compound | assigned.label
CC(C)(C)OC(=O)N1CCCC1=O | -1
OCC(O)C(OC1OC(CO)C(O)C(O)C1O)c1nn(-c2ccc(F)cc2)c2nc3cc(Cl)c(Cl)cc3cc12 (centres undefined) | -1
CCOP(=O)(OCC)[C@H]1OC(C)(C)O[C@@H]1CO | -1
CC1=CC[C@@]2(C)[C@@H]([C@@H]1C)[C@H]1CC[C@@H]3[C@@]4(C)CC[C@H](O)C(C)(C)[C@@H]4CC[C@@]3(C)[C@]1(C)C[C@@H]2O | -1
COc1ccc(C(C2=C(O)CC(C)OC2=O)C2=C(O)CC(C)OC2=O)cc1 (centres undefined) | -1
C[N+]12CCCCC1C(COc1cccc3cccnc13)CCC2 (centres undefined) | -1
CCc1n[nH]c(=O)n1CCCCCCCCn1c(CC)n[nH]c1=O | -1
COc1cc2c3c(n(Cc4ccccc4)c(=O)c2cc1OC)-c1ccccc1C3=O | -1
COc1ccc(C2=Cc3nc2c(-c2ccccc2)c2ccc([nH]2)c(-c2ccccc2)c2nc(c(-c4ccccc4)c4ccc([nH]4)c3-c3ccccc3)C=C2)cc1 | -1
CC1=NN(c2cccc(Cl)c2)C(=N/c2nc3ccccc3s2)/C1=C\C=C\c1ccccc1 | -1
COC(=O)[C@@H]1CN(C(=O)c2ccccc2)C(=O)N1 | -1
N#CC(c1ccccc1)c1cccc2ccccc12 (centres undefined) | -1
CCCC[C@@H](C)/C=C1\CN2CCC[C@H]2[C@@](C)(OCc2ccccc2)[C@@H]1O | -1
Cc1ccc(CNNC(=O)c2cc[n+]([BH2-]C#N)cc2)cc1 | -1
O=[N+]([O-])c1ccc(NC(=S)N/N=C(\c2ccccc2)c2ccccn2)cc1 | -1
NCCNc1ccc(NCCN)c2c1C(=O)c1c(O)ccc(O)c1C2=O | 1
CN1CC[C@@]2(c3cccc(O)c3)CC(=O)/C(=C/c3ccccc3)[C@H]1C2.[O-][Cl+3]([O-])([O-])O | -1
O=C1Nc2ccccc2N=CC1NC(=O)C(c1ccccc1)c1ccccc1 (centres undefined) | -1
O=C(O)C(Cc1ccc(O)c([N+](=O)[O-])c1)N1C(=O)c2ccccc2C1=O (centres undefined) | -1
CCOc1cccc2sc(N)nc12 | -1
O=C(/C=C/c1ccc(O)c([N+](=O)[O-])c1)CC(=O)/C=C/c1ccc(O)c([N+](=O)[O-])c1 | -1
O=C(/C=C/c1ccc(O)c(O)c1)NCCc1ccc(-c2ccccc2)cc1 | -1
O=c1oc2cc(O)ccc2cc1-c1nc2ccccc2o1 | -1
COc1cc(/C=N/NC(=O)c2c(Cl)c(Cl)c(Cl)c(Cl)c2-c2nc3cc(C(=O)c4ccccc4)ccc3[nH]2)ccc1O | -1
Cc1c(Cl)ccc2[s+]snc12 | -1
CO/N=C(/C)c1cccc(Nc2nc3ccc(Cl)cc3c3[nH]c4ccccc4c23)c1 | -1
O=C1c2ccccc2C(=O)N1Cc1ccccc1-c1c2nc(c(-c3ccccc3CN3C(=O)c4ccccc4C3=O)c3ccc([nH]3)c(-c3ccccc3CN3C(=O)c4ccccc4C3=O)c3nc(c(-c4ccccc4CN4C(=O)c5ccccc5C4=O)c4ccc1[nH]4)C=C3)C=C2 | -1
CCC(=O)NC(Nc1ccc(O)cc1)(C(F)(F)F)C(F)(F)F | -1
CCCC(=O)OCC1OC(n2cc(F)c(=O)[nH]c2=O)CC1O (centres undefined) | 1

* * *

# Test system: RXF 393
# protocol.description: NCI tumour cell line growth inhibition, 48 h
Activity calls are given as the source filed them. No stated cut-off is given here; in the data, active = GI50 up to about 1.1 µM and inactive = higher.
value.type: GI50

molecule | obs.value
N#CC1=C(N)OC2=C(CSc3ccccc32)C1c1ccc(Br)cc1 (stereo not given) | 4.04 µM (inactive)
Cc1ccc(NC(=O)NC23CC4CC(CC(F)(C4)C2)C3)cc1 | > 100 µM (inactive)
O=C(Nn1c(-c2ccccc2)nc2ccccc2c1=O)c1ccccn1 | 45.3 µM (inactive)
NC(=O)C(=O)N/N=C1\C(=O)N(c2ccc(Cl)cc2Cl)C(=O)C1C(=O)Nc1ccc(Cl)cc1Cl (stereo not given) | > 100 µM (inactive)
CCn1c(=O)c2nc(SC)sc2n(-c2ccccc2)c1=O | > 100 µM (inactive)
O=C1OC(c2ccccc2)=N/C1=C\c1cccc(F)c1 | > 100 µM (inactive)
Cc1cccc(CNc2[nH]cnc3nncc2-3)c1 | > 100 µM (inactive)
C=CCNC(=O)CN(CC(=O)O)C1CCCCC1N(CC(=O)O)CC(=O)O (stereo not given) | > 100 µM (inactive)
COc1ccc2c(c1OC)OCC(CN(C)C)C2=O (stereo not given) | 16.6 µM (inactive)
COc1cc(/C=c2\sc3n(c2=O)C(c2ccc(Cl)cc2)C2=C(CCCC2C)N=3)cc(OC)c1OC (stereo not given) | > 100 µM (inactive)
O=C(/C=C/c1ccc(O)c([N+](=O)[O-])c1)CC(=O)/C=C/c1ccc(O)c([N+](=O)[O-])c1 | 44.4 µM (inactive)
CCOC(=O)c1c2ccccc2n2c(=O)n(C)nnc12 | > 47.4 µM (inactive)
CCOc1ccc(NCC(=O)N2CC(=O)Nc3ccccc32)cc1 | > 100 µM (inactive)
COC1CCC(OS(C)(=O)=O)C(CO)O1 (stereo not given) | > 100 µM (inactive)
Nc1nc(N)nc(CCCCc2nc(N)nc(N)n2)n1 | > 100 µM (inactive)

* * *

# Tested on: K562
# protocol.description: NCI tumour cell line growth inhibition, 48 h
Active and inactive are the calls of the source. No stated cut-off is given here; in the data, active = GI50 up to about 1.1 µM and inactive = higher.
GI50 values for the compounds below.
value.type: GI50

compound | value.type | obs.value
COc1cc2c(cc1OC)[C@@H]([C@H](O)c1ccccc1)NCC2 | GI50 | > 100 µM (inactive)
CCCCC/C(=N\c1[nH]nnc1C(N)=O)OCC | GI50 | > 100 µM (inactive)
CSc1nc2c(ncn2C2OC(CO)C(O)C(O)C2O)c(=O)[nH]1 (stereo not drawn) | GI50 | > 100 µM (inactive)
CCC[C@H]1C(=O)N=C(N)N1C(=O)OCc1ccccc1 | GI50 | > 100 µM (inactive)
O=C1NC2CCCCC2N=C1CC(=O)c1ccc(Br)cc1 (stereo not drawn) | GI50 | > 100 µM (inactive)
Cc1ccccc1NC(=O)/C(=N\NC(N)=S)C(C#N)c1ccccc1 (stereo not drawn) | GI50 | > 100 µM (inactive)
COc1cc(/C=N/NC(=O)c2c(Cl)c(Cl)c(Cl)c(Cl)c2-c2nc3cc(C(=O)c4ccccc4)ccc3[nH]2)ccc1O | GI50 | 15.8 µM (inactive)
Cn1c(=O)n2n(c1=O)[C@@H](c1ccccc1)[C@H]2c1ccccc1 | GI50 | 64.3 µM (inactive)

* * *

# Test system: SF-539
# protocol.description: NCI tumour cell line growth inhibition, 48 h
Where a name gives a salt, the structure may show the parent alone. The source made the active and inactive calls. Cut-off read from the data, not from the text of the source: active = GI50 up to about 1.1 µM and inactive = higher.
Classes used: 1.0 = active, 0.0 = inactive

molecule | assigned.label
Cc1ccc2c(c1)C(C1Cc3cccc(C)c3C1=O)OC2=O (centres undefined) | 0.0
COc1cc(OC)c(C(=O)c2cccs2)cc1N | 0.0
C=CCN(C(C)=O)c1cc(OCc2ccccc2)c2c(c1)c(C)cn2S(=O)(=O)c1ccccc1 | 0.0
CC[C@]12CN3CCc4c([nH]c5ccccc45)[C@@](C(=O)OC)(c4cc5c(cc4OC)N(C)[C@H]4[C@@](O)(C(=O)OC)[C@H](OC(C)=O)[C@]6(CC)C=CCN7CC[C@]54[C@@H]76)CC(C3)[C@H]1O2 (some centres undefined) [VINLEUROSINE SULFATE] | 1.0
CCC[C@H]1C(=O)N=C(N)N1C(=O)OCc1ccccc1 | 0.0
COC1(OC)c2occc2C(=N)c2ccc(=O)oc21 | 0.0
Nc1nc(Cl)cc(NCC2(CO)CCC(CCc3ccccc3)C2)n1 (centres undefined) | 0.0
CCC1(CC)C(=O)NC(=S)N=C1N | 0.0
Cc1ccccc1NC(=O)/C(=N\NC(N)=S)C(C#N)c1ccccc1 (centres undefined) | 0.0
O=C1c2ccccc2-n2c1nc1ccc([N+](=O)[O-])cc1c2=O | 0.0
C=CC(O)(CBr)CCC(Br)C(=C)C (centres undefined) | 0.0
Nc1ncnc2c1ncn2C1OC(CO)=CC1O (centres undefined) | 0.0
Oc1cccc2ccc(SSc3ccc4cccc(O)c4n3)nc12 | 0.0
CS/C(=N\c1ccccc1Cl)NC(=O)c1ccc(Br)cc1 | 0.0
C=C(COCO)C(C)=O | 0.0
COc1ccc2c(c1OC)OCC(CN(C)C)C2=O (centres undefined) | 0.0
CC1C2CC(C(S(=O)(=O)N3CCOCC3)/C2=N\O)C1(C)C (centres undefined) | 0.0
Cc1nc2ccc(NCCN(C)C)c3c(=O)c4cc(O)ccc4n1c23 | 1.0
COC(=O)C(CC(C)C)NC(=O)NC12CC3CC(CC(F)(C3)C1)C2 (centres undefined) | 0.0
